System: AncSZ
run-description: phosphorylation enrichment, bacterial display (enrichment ratio); higher = better substrate or ligand; peptides without Tyr show the background;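 note: 11-residue human phosphosite peptides and single-mutation variants displayed on the E. coli surface, counted by deep sequencing, each peptide's frequency after selection divided by its frequency in the unselected input library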;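 note: frequency after pTyr selection over input frequency; kinase dosed for 20-30% of maximal phosphorylation in three min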
The sequences listed here are annotated with their phosphorylation enrichment.

Field: example entries. Status: answers known.
| sequence-content | target-or-test-system | experimental-value |
| --- | --- | --- |
| GRDVIYKGFED [NFU1_Y194_G190R] | AncSZ | 0.77 |
| LENQTYFKSFE [AKAP9_Y2482] | AncSZ | 1.59 |
| FLENFYDLEKD [MMP3_Y42_K45E_YF] | AncSZ | 1.33 |
| YPPTHYIRRVP [SLC4A11_Y820] | AncSZ | 0.754 |
| LSIWPYLQKID [MFSD8_Y63_M58L] | AncSZ | 1.16 |

In: Could you share which phosphorylation enrichment value was measured for YSMGCYEFSLG [HMGCL_Y198_I200F] ?
Out: 2.47

In: phosphorylation enrichment lookup needed for VKRNRYKDILP [PTPN12_Y64_K61R] , thanks.
Out: 0.65

In: Consider the sequence DEEPPDRGPFC [SASH1_Y551_Y551D] and give its measured phosphorylation enrichment.
Out: 1.15

In: # input sequence: VNFDDYTVNLG [GFPT1_Y367] ; wanted: its phosphorylation enrichment
Out: 1.39

In: Which value of phosphorylation enrichment has been reported for HSVLQYVGGVM [FGGY_Y136] in the records?
Out: 1.05

In: Report phosphorylation enrichment for PRPACYPSTVS [CACNA1C_Y1832_G1831C] please.
Out: 0.554

In: Give the measured phosphorylation enrichment of DDSSAYCSVDE [BCKDHA_Y345_R346C] .
Out: 1.32

In: I have this sequence here, WKKEIYEESST [MOCS2_Y170] , and I need its recorded phosphorylation enrichment.
Out: 1.04

In: Field request: phosphorylation enrichment | item: RVEDACILTCN [CCT6A_Y229_Y229C]
Out: 0.994

In: Any idea what phosphorylation enrichment was measured for LKRIAYFLCLR [LGI1_Y21_L26R] ?
Out: 0.997

In: Please give the measured phosphorylation enrichment for this sequence: KLIETYFSKNF [PLP1_Y50_YF]
Out: 0.942

* * *

Test system: c-Src
run-description: phosphorylation enrichment, bacterial display (enrichment ratio); higher = better substrate or ligand; peptides without Tyr show the background
Give Y when the value for phosphorylation enrichment is at least 0.5. Give N when it is less.

| sequence-content | target-or-test-system | class-label |
| --- | --- | --- |
| MECLPYGSLRD [JAK2_Y934_Y931C] | c-Src | Y |
| YQGGTYSKAST [FGG_Y380] | c-Src | N |
| GNLQEYLTRHV [TGFBR2_Y336] | c-Src | N |

In: For this sequence, is measured phosphorylation enrichment 0.5 or higher? QFPDIYAREEV [CRX_Y67_V66I_YF]
Out: Y

In: Please check the record PFTDPYFDFEI [ZC3H18_Y371_A368T_YF] and state if its phosphorylation enrichment is at or above 0.5.
Out: Y

In: State whether the measured phosphorylation enrichment reaches 0.5, counting equality as reaching it, for KSMSVYCTPNK [ATP2A2_Y497]
Out: N

In: Is reported phosphorylation enrichment greater than or equal to 0.5 here: SIYKDYYRYNF [PLA2G2D_Y85]
Out: Y

In: Test whether the sequence GRTGHYLCNAC [GATA1_Y223_D218G] records phosphorylation enrichment of 0.5 or higher.
Out: N
